Cited source for all entries: patent US9855268B2

- test_system: GCN2 (Homo sapiens, UniProt Q9P2K8)
- test_protocol: GCN2 enzyme assay (TR-FRET Lanthascreen, GFP-eIF2alpha phosphorylation)
- Assay type: biochemical
- applied_conditions: 10 μM ATP, 80 nM GFP-eIF2a, 30 nM GCN2
- Sequence (Q9P2K8 whole entry, species assumed): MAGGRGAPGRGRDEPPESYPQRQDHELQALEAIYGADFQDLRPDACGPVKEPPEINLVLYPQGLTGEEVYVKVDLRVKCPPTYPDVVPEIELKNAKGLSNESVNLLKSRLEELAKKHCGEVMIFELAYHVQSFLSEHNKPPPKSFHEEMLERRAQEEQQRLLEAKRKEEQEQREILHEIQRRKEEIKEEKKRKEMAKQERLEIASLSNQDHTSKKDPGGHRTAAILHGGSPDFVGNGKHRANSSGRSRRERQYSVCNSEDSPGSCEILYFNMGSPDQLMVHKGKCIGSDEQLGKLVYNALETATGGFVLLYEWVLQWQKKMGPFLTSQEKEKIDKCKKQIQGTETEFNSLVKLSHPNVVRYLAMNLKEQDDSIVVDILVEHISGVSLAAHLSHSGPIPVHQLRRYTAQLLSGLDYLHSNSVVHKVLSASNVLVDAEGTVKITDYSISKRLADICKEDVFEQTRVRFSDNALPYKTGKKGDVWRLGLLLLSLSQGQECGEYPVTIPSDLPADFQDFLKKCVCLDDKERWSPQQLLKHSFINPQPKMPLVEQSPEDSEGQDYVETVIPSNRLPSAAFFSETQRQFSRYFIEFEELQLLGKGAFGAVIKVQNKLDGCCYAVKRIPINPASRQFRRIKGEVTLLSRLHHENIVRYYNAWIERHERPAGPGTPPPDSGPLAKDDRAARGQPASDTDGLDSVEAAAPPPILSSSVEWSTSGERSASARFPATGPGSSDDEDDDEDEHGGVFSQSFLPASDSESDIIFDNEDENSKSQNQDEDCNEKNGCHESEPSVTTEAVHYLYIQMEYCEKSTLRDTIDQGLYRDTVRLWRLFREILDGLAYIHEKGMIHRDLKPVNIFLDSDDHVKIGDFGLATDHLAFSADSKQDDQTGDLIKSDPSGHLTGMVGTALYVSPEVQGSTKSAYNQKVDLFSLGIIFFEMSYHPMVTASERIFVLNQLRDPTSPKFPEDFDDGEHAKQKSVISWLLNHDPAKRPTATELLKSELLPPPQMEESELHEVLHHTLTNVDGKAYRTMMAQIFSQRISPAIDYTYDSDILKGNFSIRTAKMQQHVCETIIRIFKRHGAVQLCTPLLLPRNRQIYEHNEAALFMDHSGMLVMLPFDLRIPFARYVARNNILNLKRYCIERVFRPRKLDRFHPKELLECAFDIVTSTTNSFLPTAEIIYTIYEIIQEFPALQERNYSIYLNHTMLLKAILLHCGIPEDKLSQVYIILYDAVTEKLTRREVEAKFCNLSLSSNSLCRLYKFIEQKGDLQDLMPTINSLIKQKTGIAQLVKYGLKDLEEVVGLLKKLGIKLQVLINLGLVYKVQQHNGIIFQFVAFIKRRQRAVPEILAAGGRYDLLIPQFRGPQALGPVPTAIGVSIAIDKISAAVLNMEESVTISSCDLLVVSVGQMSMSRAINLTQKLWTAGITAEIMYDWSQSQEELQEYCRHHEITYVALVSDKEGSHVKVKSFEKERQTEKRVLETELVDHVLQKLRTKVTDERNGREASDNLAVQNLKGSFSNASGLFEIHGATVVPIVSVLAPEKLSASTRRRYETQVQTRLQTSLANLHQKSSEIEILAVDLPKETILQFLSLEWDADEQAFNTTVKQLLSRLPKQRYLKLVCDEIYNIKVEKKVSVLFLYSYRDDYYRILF
Structures can show the parent of a compound that is named as a salt.
measured_metric: IC50

compound	test_system	IC50
CC(C)Oc1ccc(-n2nnc3cnc(N[C@@H]4CC[C@@H](C(N)=O)C4)nc32)cc1	GCN2 (Homo sapiens, UniProt Q9P2K8)	< 1000 nM

Looking for the measured IC50 of COc1ccc(-n2nnc3cnc(N[C@H]4C[C@@H](NC(=O)OC(C)(C)C)C4)nc32)cc1 , can you help?
< 1000 nM

Any idea what IC50 was measured for Cc1ccc2cc(-n3nnc4cnc(N[C@@H]5CCNC5)nc43)ccc2n1 ?
< 1000 nM

Which IC50 reading was recorded for the compound COc1ccc(-n2nnc3cnc(N[C@@H]4CC[C@@H](C(=O)N(C)C)C4)nc32)cc1 ?
< 1000 nM

Please give the measured IC50 for this compound: N[C@H]1CC[C@H](Nc2ncc3nnn(-c4ccc(N5CC[C@@H](O)C5)cc4)c3n2)CC1
< 1000 nM

Fill blank: measured IC50 of the compound COc1ccc(-n2nnc3cnc(N[C@H]4CCN(C(=O)OC(C)(C)C)C4)nc32)cc1 is ____.
5000 to 10000 nM

Need IC50, item COc1ccc(-n2nnc3cnc(N[C@H]4C[C@@H](N)C4)nc32)cc1 [A31, hydrochloride]
1000 to 5000 nM

Which IC50 reading was recorded for the compound CCOc1ccc(-n2nnc3cnc(N[C@@H]4CC[C@@H](C(=O)NCCO)C4)nc32)cc1 ?
< 1000 nM

---

- test_system: GSK3α(h) (Homo sapiens)
- Sequence (P49840 whole entry): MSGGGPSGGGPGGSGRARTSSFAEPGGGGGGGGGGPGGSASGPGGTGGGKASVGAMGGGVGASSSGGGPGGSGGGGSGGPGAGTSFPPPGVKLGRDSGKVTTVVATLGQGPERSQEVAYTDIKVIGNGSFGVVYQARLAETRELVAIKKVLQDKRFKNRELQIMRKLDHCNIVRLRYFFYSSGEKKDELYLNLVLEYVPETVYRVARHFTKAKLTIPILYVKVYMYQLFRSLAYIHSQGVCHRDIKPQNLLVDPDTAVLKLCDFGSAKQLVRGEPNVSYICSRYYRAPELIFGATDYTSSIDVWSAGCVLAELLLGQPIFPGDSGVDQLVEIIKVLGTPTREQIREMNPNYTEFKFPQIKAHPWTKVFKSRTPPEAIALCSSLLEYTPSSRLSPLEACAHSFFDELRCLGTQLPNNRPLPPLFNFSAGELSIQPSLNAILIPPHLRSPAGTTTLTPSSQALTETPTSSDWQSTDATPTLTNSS
- test_protocol: GSK3α radiometric kinase assay (33P-ATP, phospho GS2 peptide)
- Type: biochemical
- applied_conditions: 10 μM ATP or Km ATP; read-out: IC50 GSK3α (enzyme assay)
- Experimental: GSK3α(h) is incubated with 8 mM MOPS pH 7,0, 0,2 mM EDTA, 20 μM […](p)EDEEE (phosphor GS2 peptide), 10 mM Mg-acetate and [gamma-33P-ATP](specific activity approx. 500 cpm/Pmol, concentration as required). The reaction is initiated by the addition of the MgATP. After incubation for 40 minutes at the room temperature, the Reaction is stopped by the addition of 3% phosphoric acid solution. […]
measured_metric: IC50

Given the compound NC(=O)[C@@H]1CC[C@@H](Nc2ncc3nnn(-c4ccc(-c5cnn(CCO)c5)cc4)c3n2)C1 , what is its reported IC50?
< 1000 nM

---

- test_system: GCN2 (Homo sapiens, UniProt Q9P2K8)
- test_protocol: Cellular assay of GCN2 activity (phospho-eIF2alpha immunocytochemistry after tryptophanol)
- Format: cell-based
- Parameters: endogenous in cells; host or cells: U2OS
- applied_conditions: Human U2OS cells, 2 h compound, 600 μM tryptophanol 30 min
- Sequence (Q9P2K8 whole entry): as the sequence (Q9P2K8 whole entry, species assumed) above
measured_metric: IC50

Worked cases, answers included:
compound	IC50
Cc1ccc2cc(-n3nnc4cnc(N[C@@H]5CC[C@@H](C(=O)NCCC(C)(C)O)C5)nc43)ccc2n1	< 1 µM
CCOc1ccc(-n2nnc3cnc(N[C@@H]4CC[C@@H](C(N)=O)C4)nc32)cc1F	1 to 5 µM
COCC(COC)Oc1ccc(-n2nnc3cnc(N[C@@H]4CC[C@@H](C(N)=O)C4)nc32)cc1	1 to 5 µM
Cc1cc2cc(-n3nnc4cnc(N[C@@H]5CC[C@@H](C(N)=O)C5)nc43)ccc2o1	1 to 5 µM
COc1ccc(-n2nnc3cnc(N[C@@H]4CC[C@@H](CO)C4)nc32)cc1	1 to 5 µM

IC50 lookup needed for O[C@@H]1CC[C@@H](Nc2ncc3nnn(-c4ccc(-c5cnn(CCN6CCCC6)c5)cc4)c3n2)C1 , thanks.
1 to 5 µM

Find the recorded IC50 belonging to Cc1ccc2cc(-n3nnc4cnc(N[C@@H]5CC[C@@H](O)C5)nc43)ccc2n1 [A208] and report it.
1 to 5 µM

I have this compound here, NC(=O)[C@H]1CC[C@@H](Nc2ncc3nnn(-c4ccc5ncccc5c4)c3n2)C1 , and I need its recorded IC50.
1 to 5 µM

Entry under review: CCOc1ccc(-n2nnc3cnc(N[C@@H]4CC[C@@H](C(=O)NCCO)C4)nc32)cc1 . Reported IC50?
< 1 µM

I'd like to know its IC50. The compound in question is Cc1ccc2cc(-n3nnc4cnc(N[C@@H]5CC[C@@H](C(=O)NCC6CCN(C)CC6)C5)nc43)ccc2n1
1 to 5 µM

---

- test_system: GCN2 (Homo sapiens, UniProt Q9P2K8)
- test_protocol: Cellular assay of GCN2 activity (phospho-eIF2alpha immunocytochemistry after tryptophanol)
- Format: cell-based
- Parameters: endogenous in cells; host or cells: U2OS
- applied_conditions: Human U2OS cells, 2 h compound, 600 μM tryptophanol 30 min
pIC50: −log10 of the molar value.
measured_metric: pIC50

Would you mind telling me what pIC50 value was observed for COCCOc1ccc(-n2nnc3cnc(N[C@@H]4CC[C@@H](C(N)=O)C4)nc32)cc1 ?
5.30 to 6.00

Any idea what its pIC50 is? The compound is Cn1cc(CNc2ncc3nnn(-c4ccc5ncccc5c4)c3n2)cn1
5.00 to 5.30

State the recorded pIC50 for this entry: N#CCCn1cc(-c2ccc(-n3nnc4cnc(N[C@@H]5CC[C@@H](O)C5)nc43)cc2)cn1 (relative stereo)
5.30 to 6.00

// query pIC50 value for entry CCOCCn1cc(-c2ccc(-n3nnc4cnc(N[C@@H]5CC[C@@H](O)C5)nc43)cc2)cn1
5.30 to 6.00

I am curious: what pIC50 value has been reported for CC(C)(CCO)Oc1ccc(-n2nnc3cnc(N[C@@H]4CC[C@@H](C(N)=O)C4)nc32)cc1 ?
5.30 to 6.00

---

- test_system: GCN2 (Homo sapiens, UniProt Q9P2K8)
- test_protocol: GCN2 enzyme assay (TR-FRET Lanthascreen, GFP-eIF2alpha phosphorylation)
- Format: biochemical
- applied_conditions: 10 μM ATP, 80 nM GFP-eIF2a, 30 nM GCN2
measured_metric: IC50

compound	IC50
Cn1cc(CNc2ncc3nnn(-c4ccc5ncccc5c4)c3n2)cn1	< 1 µM
N[C@H]1CC[C@H](Nc2ncc3nnn(-c4ccc(N5CCOCC5)cn4)c3n2)CC1	1 to 5 µM
COc1ccc(-n2nnc3cnc(N[C@@H]4CCN(S(C)(=O)=O)C4)nc32)cc1 [A269a]	< 1 µM
COc1ccc(-n2nnc3cnc(N[C@H]4CC[C@@H](CCO)CC4)nc32)cc1	< 1 µM
O=c1cccnn1CCn1cc(-c2ccc(-n3nnc4cnc(N[C@@H]5CC[C@@H](O)C5)nc43)cc2)cn1	< 1 µM

Give the reported IC50 for NC(=O)[C@@H]1CC[C@@H](Nc2ncc3nnn(-c4ccc(N5CCCC5)cc4)c3n2)C1 (system: GCN2 (Homo sapiens, UniProt Q9P2K8)).
< 1 µM

Test system GCN2 (Homo sapiens, UniProt Q9P2K8); read-out IC50; what value for Cc1nc(CCn2cc(-c3ccc(-n4nnc5cnc(N[C@@H]6CC[C@@H](C(N)=O)C6)nc54)cc3)cn2)no1 ?
< 1 µM

API: value(readout= IC50, system= GCN2 (Homo sapiens, UniProt Q9P2K8), query= COc1ccc(-n2nnc3cnc(NC(C)C)nc32)cc1 )
< 1 µM

GET /values?readout=IC50&system=GCN2 (Homo sapiens, UniProt Q9P2K8)&item= COc1ccc(-n2nnc3cnc(NC4CCN(CCN5CCOCC5)CC4)nc32)cc1
1 to 5 µM

Recorded IC50 for CCOCCn1cc(-c2ccc(-n3nnc4cnc(N[C@@H]5CC[C@@H](C(N)=O)C5)nc43)cn2)cn1 with GCN2 (Homo sapiens, UniProt Q9P2K8), please?
< 1 µM

Please state recorded IC50 (tested on GCN2 (Homo sapiens, UniProt Q9P2K8)) of N[C@H]1CC[C@H](Nc2ncc3nnn(-c4ccc(-c5cnn(CCn6cccn6)c5)cc4)c3n2)CC1
< 1 µM

# get_value(readout= IC50, system= GCN2 (Homo sapiens, UniProt Q9P2K8)) for COc1ccc(-n2nnc3cnc(NC4CCN(C(=O)OC(C)(C)C)CC4)nc32)cc1
< 1 µM

Under GCN2 (Homo sapiens, UniProt Q9P2K8): IC50 value of CCOc1ccc(-n2nnc3cnc(N[C@@H]4CC[C@@H](C(=O)N(C)CC(C)(C)O)C4)nc32)cc1 ?
< 1 µM

Checklist item: IC50 tested on GCN2 (Homo sapiens, UniProt Q9P2K8), entry NC(=O)[C@@H]1CC[C@@H](Nc2ncc3nnn(-c4ccc(OC[C@H](O)C(F)(F)F)cc4)c3n2)C1 , value?
< 1 µM

Lab note: need IC50 for COc1ccc(-n2nnc3cnc(NCCCN4CCN(C)CC4)nc32)cc1 on GCN2 (Homo sapiens, UniProt Q9P2K8), anyone have it?
1 to 5 µM
